// data source = patent US20130065922A1

Below is a list of entries, each paired with its recorded melting point value.

Solved entries (count: 3):
melting point lookup needed for CCC(Oc1cc(Cl)c2ncc(SC)cc2c1)C(=O)NC(C)(C)C (stereo not drawn) , thanks. 134 to 136 °C

Now consider C#CC(C)(C)NC(=O)C(Oc1cc(Cl)c2ncc(SC)cc2c1)SC (stereo not drawn) [Compound 32] . 157 to 159 °C

Now consider COC(Oc1cc(Cl)c2ncc(SC)cc2c1)C(=O)NC(C)C (stereo not drawn) [Compound 52] . 115 to 118 °C

Next:
melting point lookup needed for COCC(C)(C#N)NC(=O)C(Oc1ccc2ncc(OC)cc2c1)SC (stereo not drawn) [Compound 3] , thanks. 75 to 77 °C

Now consider C#CC(C)(COC)NC(=O)C(Oc1ccc2ncc(OC)cc2c1)SC (stereo not drawn) [Compound 5] . 112 to 118 °C

Now consider COCC#CC(C)(C)NC(=O)C(Oc1cc(C)c2ncc(OC)cc2c1)SC (stereo not drawn) [Compound 17] . 94 to 98 °C

Now consider CCC(Oc1ccc2ncc(SC)cc2c1)C(=O)NC(C)C (stereo not drawn) [Compound 28] . 112 to 115 °C

Now consider COCC(C)(C#N)NC(=O)C(Oc1cc(C)c2ncc(OC)cc2c1)SC (stereo not drawn) [Compound 18] . 123 to 129 °C

Now consider CCC(Oc1ccc2ncc(OC)cc2c1)C(=O)NC(C)(C)C (stereo not drawn) [Compound 12] . 131 to 133 °C

====

property label: melting point

melting point lookup needed for CO/N=C/C(C)(C)NC(=O)C(OC)Oc1cc(C)c2ncc(SC)cc2c1 (stereo not shown) , thanks. 109 to 111 °C

Now consider C#CC(C)(C)NC(=O)C(CC)Oc1ccc2ncc(SC)cc2c1 (stereo not shown) . 121 to 123 °C

Now consider COC(Oc1ccc2ncc(SC)cc2c1)C(=O)NC(C)(C)C (stereo not shown) . 119 to 121 °C

Now consider CCC(Oc1cc(C)c2ncc(SC)cc2c1)C(=O)NC(C)C (stereo not shown) . 132 to 134 °C

Now consider CC#CC(C)(C)NC(=O)C(OC)Oc1ccc2ncc(SC)cc2c1 (stereo not shown) . 63 to 65 °C

Now consider CC#CC(C)(C)NC(=O)C(Oc1ccc2ncc(OC)cc2c1)SC (stereo not shown) . 137 to 139 °C

Now consider CCSc1cnc2ccc(OC(SC)C(=O)NC(C)(C)/C=N/OC)cc2c1 (stereo not shown) . 105 to 107 °C

Now consider C#CC(C)(C)NC(=O)C(OC)Oc1cc(C)c2ncc(SC)cc2c1 (stereo not shown) . 124 to 127 °C

Next:
melting point lookup needed for CCOc1cnc2c(C)cc(OC(SC)C(=O)NC(C)(C)C#CCOC)cc2c1 (stereo not shown) , thanks. 107 to 109 °C

Now consider CC#CC(C)(C)NC(=O)C(OC)Oc1cc(Cl)c2ncc(SC)cc2c1 (stereo not shown) . 90 to 92 °C

====

Below is a list of entries, each paired with its recorded melting point value.

melting point lookup needed for CO/N=C/C(C)(C)NC(=O)C(OC)Oc1ccc2ncc(SC)cc2c1 (stereo not drawn) [Compound 56] , thanks. 98 to 100 °C

Now consider CCC(Oc1cc(Cl)c2ncc(SC)cc2c1)C(=O)NC(C)C (stereo not drawn) . 143 to 145 °C

Now consider C#CC(C)(C)NC(=O)C(OC)Oc1cc(Cl)c2ncc(SC)cc2c1 (stereo not drawn) . 116 to 118 °C

====

property label: melting point

melting point lookup needed for C#CC(C)(C)NC(=O)C(Oc1ccc2ncc(OC)cc2c1)SC (stereo not drawn) [Compound 10] , thanks. 152 to 154 °C

Now consider CO/N=C/C(C)(C)NC(=O)C(OC)Oc1cc(Cl)c2ncc(SC)cc2c1 (stereo not drawn) [Compound 47] . 121 to 123 °C

Now consider C#CC(C)(C)NC(=O)C(Oc1cc(C)c2ncc(OCC)cc2c1)SC (stereo not drawn) [Compound 25] . 160 to 162 °C

Now consider COCC#CC(C)(C)NC(=O)C(Oc1ccc2ncc(OC)cc2c1)SC (stereo not drawn) [Compound 4] . 95 to 98 °C

Now consider COC(Oc1cc(Cl)c2ncc(SC)cc2c1)C(=O)NC1(C)CCC1 (stereo not drawn) . 113 to 115 °C

Now consider C#CC(C)(C)NC(=O)C(CC)Oc1ccc2ncc(OC)cc2c1 (stereo not drawn) [Compound 7] . 109 to 112 °C

Now consider CCC(Oc1cc(C)c2ncc(SC)cc2c1)C(=O)NC(C)(C)C (stereo not drawn) . 119 to 121 °C

Now consider COC(Oc1ccc2ncc(SC)cc2c1)C(=O)NC1(C)CCC1 (stereo not drawn) . 100 to 102 °C

Next:
melting point lookup needed for CCOc1cnc2c(C)cc(OC(SC)C(=O)NC(C)(C)C)cc2c1 (stereo not drawn) [Compound 20] , thanks. 181 to 183 °C

====

Below is a list of entries, each paired with its recorded melting point value.

melting point lookup needed for COC(Oc1cc(C)c2ncc(SC)cc2c1)C(=O)NC(C)(C)C (stereo not drawn) , thanks. 146 to 148 °C

Now consider CC#CC(C)(C)NC(=O)C(Oc1cc(Cl)c2ncc(OC)cc2c1)SC (stereo not drawn) . 133 to 136 °C

Now consider COC(Oc1cc(Cl)c2ncc(SC)cc2c1)C(=O)NC1CCC1 (stereo not drawn) . 128 to 130 °C

Now consider CCC(Oc1cc(C)c2ncc(SC)cc2c1)C(=O)NC1CCC1 (stereo not drawn) . 136 to 138 °C

Now consider COCC#CC(C)(C)NC(=O)C(OC)Oc1ccc2ncc(SC)cc2c1 (stereo not drawn) . 74 to 76 °C

====

Below is a list of entries, each paired with its recorded melting point value.

Solved entries (count: 3):
melting point lookup needed for COCC(C)(C#N)NC(=O)C(OC)Oc1cc(Cl)c2ncc(SC)cc2c1 (stereo not shown) , thanks. 90 to 93 °C

Now consider COc1cnc2c(C)cc(OC(SC)C(=O)NC(C)(C)C)cc2c1 (stereo not shown) [Compound 16] . 147 to 150 °C

Now consider CCC(Oc1ccc2ncc(OC)cc2c1)C(=O)NC(C)(C#N)COC (stereo not shown) . 122 to 124 °C

Turning now to a further record.
melting point lookup needed for CCC(Oc1ccc2ncc(OC)cc2c1)C(=O)NC(C)(C)/C=N/OC (stereo not shown) [Compound 6] , thanks. 87 to 89 °C
